Source listed as ChEMBL document CHEMBL4000175.

biological target: Beta-glucuronidase (Bos taurus); experiment: Inhibition of bovine liver beta glucuronidase using p-nitrophenyl-beta-D-glucuronide as substrate preincubated for 30 mins followed by substrate addition by spectrophotometric method; conditions: read-out: IC50
Sequence (A3KMY8 whole entry): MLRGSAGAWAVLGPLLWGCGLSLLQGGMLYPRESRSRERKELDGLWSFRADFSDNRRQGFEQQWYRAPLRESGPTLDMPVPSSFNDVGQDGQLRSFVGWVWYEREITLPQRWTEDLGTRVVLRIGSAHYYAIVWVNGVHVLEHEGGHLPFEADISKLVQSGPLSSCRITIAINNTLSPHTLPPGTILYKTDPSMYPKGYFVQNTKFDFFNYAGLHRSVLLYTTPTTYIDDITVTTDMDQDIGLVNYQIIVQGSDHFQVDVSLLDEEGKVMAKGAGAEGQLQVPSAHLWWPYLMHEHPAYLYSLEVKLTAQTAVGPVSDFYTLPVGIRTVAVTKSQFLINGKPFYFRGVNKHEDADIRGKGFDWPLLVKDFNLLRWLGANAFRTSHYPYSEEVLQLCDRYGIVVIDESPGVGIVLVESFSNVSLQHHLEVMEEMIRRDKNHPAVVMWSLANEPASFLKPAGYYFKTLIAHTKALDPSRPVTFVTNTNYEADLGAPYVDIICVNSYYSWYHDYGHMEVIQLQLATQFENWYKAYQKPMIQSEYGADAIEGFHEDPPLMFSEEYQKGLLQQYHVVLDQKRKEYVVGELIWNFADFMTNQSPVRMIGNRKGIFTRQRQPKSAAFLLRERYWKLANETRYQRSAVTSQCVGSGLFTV
Classification by IC50 follows these ranges: class 0 = under 8 µM, class 1 = from 8 µM up to 30 µM, class 2 = 30 µM and over

Recorded results for 3 compounds are shown here.
chemical_smiles=Cc1ncc([N+](=O)[O-])n1CCOC(=O)c1ccc(F)cc1Br assigned_category="class 0"
chemical_smiles=COc1cc(OC)cc(C(=O)OCCn2c([N+](=O)[O-])cnc2C)c1 assigned_category="class 2"
chemical_smiles=Cc1ncc([N+](=O)[O-])n1CCOC(=O)c1ccc(Cl)c(Cl)c1 assigned_category="class 0"

Prompt: Category of `Cc1ncc([N+](=O)[O-])n1CCOC(=O)c1ccc([N+](=O)[O-])cc1` :
Completion: class 1

Prompt: For this compound, which bin applies? `Cc1ncc([N+](=O)[O-])n1CCOC(=O)c1ccc(F)cc1`
Completion: class 1

Prompt: Class? Entry: `Cc1ncc([N+](=O)[O-])n1CCOC(=O)c1ccccc1Cl`
Completion: class 1
